Assign Autosampler for 24 h Accuracy (%) to each entry below.
- protocol: Stability of analytes in rat plasma (auto-sampler, freeze-thaw, room temperature, long-term)
- condition_set: 100 ng/mL, autosampler 24 h
Dear colleague, please return just the value in %, with no unit written.

In: # Autosampler for 24 h Accuracy (%) lookup, item O=C(/C=C/c1ccc(O)c(O)c1)O[C@@H]1C[C@](O)(C(=O)O)C[C@@H](O)[C@H]1O [chlorogenic acid]
Out: 96.9

In: Okay, and COc1ccc(/C=C/C(=O)O)cc1O [isoferulic acid] ?
Out: 88.3

In: Okay, and O=C(O)c1ccc(O)c(O)c1 [protocatechuic acid] ?
Out: 98.5

In: Okay, and C[C@]1(OC(=O)/C=C/c2ccccc2)C[C@@H](O)[C@]2(O)C=CO[C@@H](O[C@@H]3O[C@H](CO)[C@@H](O)[C@H](O)[C@H]3O)[C@@H]21 [harpagoside] ?
Out: 93.8

In: Okay, and O=C(O)C=Cc1ccc(O)cc1 [p-Coumaric acid] ?
Out: 96.9

In: Okay, and CC(C)=CCC[C@](C)(O)[C@H]1CC[C@]2(C)[C@@H]1[C@H](O)C[C@@H]1[C@@]3(C)CC[C@H](O)C(C)(C)[C@@H]3[C@@H](O[C@@H]3O[C@H](CO)[C@@H](O)[C@H](O)[C@H]3O)C[C@]12C [ginsenoside Rh1] ?
Out: 90.8

In: Okay, and O=c1cc(-c2ccccc2)oc2cc(O)c(O)c(O)c12 [baicalein] ?
Out: 92.4
